TGT: UniProt P58154
Sequence (P58154 20-229 limits assumed): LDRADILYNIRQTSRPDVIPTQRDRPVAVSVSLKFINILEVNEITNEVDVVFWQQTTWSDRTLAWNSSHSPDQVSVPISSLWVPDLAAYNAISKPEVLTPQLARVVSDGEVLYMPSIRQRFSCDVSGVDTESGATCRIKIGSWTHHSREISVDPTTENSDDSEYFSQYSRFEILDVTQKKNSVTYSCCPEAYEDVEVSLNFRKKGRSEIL
Bridge positions count the residues as written; N and C are the ends. Peptide text beside a SMILES is read from it.
MEASUREMENT_NAME: pIC50
In plain terms, pIC50 is the concentration in mol/L turned into minus its base-10 logarithm.

Provide pIC50 value for the following molecule: CC[C@H](C)[C@@H]1NC(=O)[C@H](Cc2c[nH]cn2)NC(=O)[C@@H]2CCCN2C(=O)[C@H](CC(N)=O)NC(=O)[C@H](CC(N)=O)NC(=O)[C@H](C(C)C)NC(=O)[C@H](Cc2c[nH]cn2)NC(=O)[C@@H]2CSSC[C@H](NC(=O)CN)C(=O)N[C@@H](CSSC[C@@H](C(=O)NCC(N)=O)NC1=O)C(=O)N[C@@H](CO)C(=O)N[C@@H](Cc1c[nH]cn1)C(=O)N1CCC[C@H]1C(=O)N[C@@H](C)C(=O)N2 [[N9H]OmIA] (H-GCCSHPACHVNNPHICG-NH2; disulfide 2-8, 3-16)
6.14

This collection of values is drawn from paper PMC8692984.
